molecular target: Peroxisome proliferator-activated receptor alpha (Homo sapiens) (UniProt Q07869); experiment: Agonist activity at PPAR-alpha (unknown origin) expressed in CV-1 cells co-transfected with tk-PPRE-luciferase vector at 10 uM after 24 hrs by transactivation assay relative to GW7647; format: cell-based
Sequence (Q07869 whole entry): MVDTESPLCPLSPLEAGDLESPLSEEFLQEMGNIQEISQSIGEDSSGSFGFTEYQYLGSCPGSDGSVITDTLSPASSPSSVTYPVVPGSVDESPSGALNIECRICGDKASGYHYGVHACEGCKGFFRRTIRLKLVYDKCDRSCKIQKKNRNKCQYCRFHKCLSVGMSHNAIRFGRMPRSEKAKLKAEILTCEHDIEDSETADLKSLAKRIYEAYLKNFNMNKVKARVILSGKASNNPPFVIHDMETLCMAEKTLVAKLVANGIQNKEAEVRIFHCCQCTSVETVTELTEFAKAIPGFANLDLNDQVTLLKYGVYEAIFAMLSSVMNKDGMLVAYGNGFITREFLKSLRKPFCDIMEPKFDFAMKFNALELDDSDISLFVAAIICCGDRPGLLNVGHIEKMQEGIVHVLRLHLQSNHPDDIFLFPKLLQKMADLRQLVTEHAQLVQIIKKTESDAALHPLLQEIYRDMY
Returns one of 1 (yes) or 0 (no); 1 (yes) when Emax is >= 30%.

The following compounds have reported results that may help.
INSERT INTO results (smiles_repr, group) VALUES
  ('O=C(O)Cc1c[nH]c2ccc(OCCCOc3ccc(OCc4ccc(Cl)cc4)cc3)cc12', '0 (no)'),
  ('O=C(O)Cc1cn(Cc2ccccc2)c2ccc(OCCCOc3cccc(OCc4ccc(Cl)cc4)c3)cc12', '1 (yes)'),
  ('Cc1ccc(Oc2cccc(OCCCOc3ccc4[nH]cc(CC(=O)O)c4c3)c2)cc1', '1 (yes)'),
  ('O=C(O)Cc1c[nH]c2ccc(OCCCOc3cccc(OCc4ccc(C(F)(F)F)cc4)c3)cc12', '0 (no)'),
  ('COc1ccc(COc2cccc(OCCOc3ccc4c(c3)c(CC(=O)O)cn4Cc3ccccc3)c2)cc1', '0 (no)'),
  ('O=C(O)Cc1cn(Cc2ccccc2)c2ccc(OCCCOc3cccc(Oc4ccc(Cl)cc4)c3)cc12', '1 (yes)');

Could you verify whether the entry "O=C(O)Cc1cn(Cc2ccccc2)c2ccc(OCCCOc3ccccc3OCc3ccc(Cl)cc3)cc12" shows Emax of no less than 30%?
0 (no)

Could you verify whether the entry "O=C(O)Cc1c[nH]c2ccc(OCCCOc3cccc(Oc4ccc(Cl)cc4)c3)cc12" shows Emax of no less than 30%?
1 (yes)

Could you verify whether the entry "O=C(O)Cc1c[nH]c2ccc(OCCOc3cccc(Cl)c3)cc12" shows Emax of no less than 30%?
0 (no)

----------
tested on: Mus musculus; test: Increase in body weight in C57BLKS/J-Lepr/Lepr db/db mouse at 10 mg/kg, po qd for 18 days administered via gavage measured on day 16 relative to untreated control; type: ADME, organism-based; conditions: in vivo, 432 h
Endpoint: increase (%)
Give bare numbers, in %.

Can you share its increase? I mean this compound: CN(CCOc1ccc(CC2SC(=O)NC2=O)cc1)c1ccccn1 (stereo unspecified) [ROSIGLITAZONE]
10

----------
I'd be grateful if you could share measured EC50 for these entries.
target: Peroxisome proliferator-activated receptor delta (Homo sapiens); assay: Agonist activity at PPAR-delta (unknown origin) expressed in HEK293t cells co-transfected with tk-PPRE-luciferase vector after 24 hrs by transactivation assay
Give bare numbers, in µM.

Consider the following illustrative entries.
INSERT INTO results (smiles_repr, target_desc, units_symbol, readout_number) VALUES
  ('Cc1ccc(COc2cccc(OCCCOc3ccc4c(CC(=O)O)cn(Cc5ccccc5)c4c3)c2)cc1', 'Peroxisome proliferator-activated receptor delta (Homo sapiens)', 'µM', 9.4),
  ('O=C(O)Cc1cn(Cc2ccccc2)c2ccc(OCCCOc3cccc(OCc4ccc(Cl)cc4)c3)cc12', 'Peroxisome proliferator-activated receptor delta (Homo sapiens)', 'µM', 2.2),
  ('Cc1ccc(COc2cccc(OCCCOc3ccc4[nH]cc(CC(=O)O)c4c3)c2)cc1', 'Peroxisome proliferator-activated receptor delta (Homo sapiens)', 'µM', 7.2),
  ('O=C(O)Cc1cn(Cc2ccc(F)cc2)c2ccc(OCCCOc3cccc(OCc4ccc(Cl)cc4)c3)cc12', 'Peroxisome proliferator-activated receptor delta (Homo sapiens)', 'µM', 0.75);

Now examine the next entry.
Can you share its EC50? I mean this compound: "COc1ccc(COc2cccc(OCCOc3ccc4c(c3)c(CC(=O)O)cn4Cc3ccccc3)c2)cc1"
6.3

----------
target: Peroxisome proliferator-activated receptor alpha (Homo sapiens) (UniProt Q07869); experiment: Agonist activity at PPAR-alpha (unknown origin) expressed in CV-1 cells co-transfected with tk-PPRE-luciferase vector at 10 uM after 24 hrs by transactivation assay relative to GW7647; format: cell-based
Each record's class is read off its Emax using these ranges: low bin = under 20%, mid bin = from 20% up to 40%, high bin = 40% and over

INSERT INTO assay_data (smiles_repr, group) VALUES
  ('Cc1ccc(COc2cccc(OCCCOc3ccc4c(CC(=O)O)cn(Cc5ccccc5)c4c3)c2)cc1', 'mid bin');

Lab note: sort "CCCn1cc(CC(=O)O)c2cc(OCCCOc3cccc(OCc4ccc(Cl)cc4)c3)ccc21" into the matching Emax band.
high bin

Lab note: sort "O=C(O)Cc1cn(Cc2ccccc2)c2ccc(OCCOc3cccc(Cl)c3)cc12" into the matching Emax band.
low bin

Lab note: sort "Cc1ccc(COc2ccccc2OCCCOc2ccc3[nH]cc(CC(=O)O)c3c2)cc1" into the matching Emax band.
high bin

----------
system: Liver microsome; test: Metabolic stability in human liver microsomes at 1 uM after 30 mins measured under phase 1 reaction by LC/MS/MS analysis; type: ADME; conditions: 0.5 h
Endpoint: Stability

INSERT INTO assay_data (smiles_repr, target_desc, endpoint, result) VALUES
  ('O=C(O)Cc1cn(Cc2ccccc2)c2ccc(OCCCOc3cccc(OCc4ccc(Cl)cc4)c3)cc12', 'Liver microsome', 'Stability', 'Stable'),
  ('Cc1ccc(COc2cccc(OCCCOc3ccc4[nH]cc(CC(=O)O)c4c3)c2)cc1', 'Liver microsome', 'Stability', 'Stable'),
  ('Cc1ccc(COc2cccc(OCCCOc3ccc4c(CC(=O)O)cn(Cc5ccccc5)c4c3)c2)cc1', 'Liver microsome', 'Stability', 'Stable');

----------
target: Peroxisome proliferator-activated receptor gamma (Homo sapiens); assay: Agonist activity at PPAR-gamma (unknown origin) expressed in CV-1 cells co-transfected with tk-PPRE-luciferase vector after 24 hrs by transactivation assay
Sequence (P37231 whole entry): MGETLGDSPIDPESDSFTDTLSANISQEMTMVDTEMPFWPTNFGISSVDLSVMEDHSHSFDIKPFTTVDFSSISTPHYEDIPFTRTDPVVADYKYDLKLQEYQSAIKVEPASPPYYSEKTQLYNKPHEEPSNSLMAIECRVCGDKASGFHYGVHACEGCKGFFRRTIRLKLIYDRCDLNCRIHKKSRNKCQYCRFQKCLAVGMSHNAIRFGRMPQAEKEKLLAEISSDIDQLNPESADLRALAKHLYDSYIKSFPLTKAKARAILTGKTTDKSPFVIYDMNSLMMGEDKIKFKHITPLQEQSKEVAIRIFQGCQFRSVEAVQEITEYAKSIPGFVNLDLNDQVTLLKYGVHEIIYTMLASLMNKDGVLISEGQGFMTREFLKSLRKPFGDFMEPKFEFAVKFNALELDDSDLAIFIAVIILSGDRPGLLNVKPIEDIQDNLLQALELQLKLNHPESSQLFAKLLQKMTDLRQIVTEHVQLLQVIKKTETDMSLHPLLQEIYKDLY
I'd be grateful if you could share measured EC50 for these entries.
Answers are plain numbers, in µM.

Consider the following illustrative entries.
INSERT INTO assay_data (smiles_repr, units_symbol, readout_number) VALUES
  ('COc1ccc(COc2cccc(OCCOc3ccc4c(c3)c(CC(=O)O)cn4Cc3ccccc3)c2)cc1', 'µM', 1.9),
  ('O=C(O)Cc1cn(Cc2ccccc2)c2ccc(OCCCOc3cccc(OCc4ccc(Cl)cc4)c3)cc12', 'µM', 0.5);

State recorded EC50 for all listed molecules.
1. Cc1ccc(COc2cccc(OCCCOc3ccc4[nH]cc(CC(=O)O)c4c3)c2)cc1
2. Cc1ccc(COc2cccc(OCCCOc3ccc4c(CC(=O)O)cn(Cc5ccccc5)c4c3)c2)cc1

1.7
1.3

----------
target: Peroxisome proliferator-activated receptor gamma (Homo sapiens) (UniProt P37231); experiment: Agonist activity at PPAR-gamma (unknown origin) expressed in CV-1 cells co-transfected with tk-PPRE-luciferase vector at 10 uM after 24 hrs by transactivation assay relative to rosiglitazone; assay type: cell-based
Sequence (P37231 whole entry): as above
Endpoint: Emax (%)
Answers are plain numbers, in %.

INSERT INTO assay_data (smiles_repr, units_symbol, readout_number) VALUES
  ('Cc1ccc(Oc2cccc(OCCCOc3ccc4c(c3)c(CC(=O)O)cn4Cc3ccccc3)c2)cc1', '%', 119),
  ('O=C(O)Cc1cn(Cc2ccccc2)c2ccc(OCCOc3cccc(Cl)c3)cc12', '%', 23.6);

State recorded Emax for all listed compounds.
1. O=C(O)Cc1c[nH]c2ccc(OCCCOc3cccc(OCc4ccc(Cl)cc4Cl)c3)cc12
2. Cc1ccc(COc2cccc(OCCOc3ccc4c(c3)c(CC(=O)O)cn4Cc3ccccc3)c2)cc1

[102, 101]

----------
Target: Peroxisome proliferator-activated receptor delta (Homo sapiens) (UniProt Q03181)
Sequence (whole entry): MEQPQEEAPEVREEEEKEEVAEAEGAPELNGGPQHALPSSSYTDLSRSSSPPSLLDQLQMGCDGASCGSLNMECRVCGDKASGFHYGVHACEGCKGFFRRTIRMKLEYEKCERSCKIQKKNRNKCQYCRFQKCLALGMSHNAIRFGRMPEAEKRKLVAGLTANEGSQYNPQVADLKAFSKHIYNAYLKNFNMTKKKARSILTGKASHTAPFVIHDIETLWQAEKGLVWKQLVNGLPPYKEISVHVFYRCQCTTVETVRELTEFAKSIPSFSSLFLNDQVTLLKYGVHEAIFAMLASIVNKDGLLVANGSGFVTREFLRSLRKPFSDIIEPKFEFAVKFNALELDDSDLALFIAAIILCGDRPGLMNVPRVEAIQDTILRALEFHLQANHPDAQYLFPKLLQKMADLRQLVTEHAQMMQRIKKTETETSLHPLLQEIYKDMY
Assay: Agonist activity at PPAR-delta (unknown origin) expressed in HEK293t cells co-transfected with tk-PPRE-luciferase vector at 10 uM after 24 hrs by transactivation assay relative to GW0742
Assay type: cell-based
Conditions: HEK-293T
Endpoint: Emax

INSERT INTO results (smiles_repr, target_desc, endpoint, result) VALUES
  ('O=C(O)Cc1c[nH]c2ccc(OCCCOc3cccc(Oc4ccccc4)c3)cc12', 'Peroxisome proliferator-activated receptor delta (Homo sapiens) (UniProt Q03181)', 'Emax', '23.8%');

State recorded Emax for all listed molecules.
1. COc1ccc(COc2cccc(OCCOc3ccc4c(c3)c(CC(=O)O)cn4Cc3ccccc3)c2)cc1
2. O=C(O)Cc1cn(Cc2ccccc2)c2ccc(OCCOc3cccc(Cl)c3)cc12
3. Cc1ccc(Oc2cccc(OCCCOc3ccc4[nH]cc(CC(=O)O)c4c3)c2)cc1
4. O=C(O)Cc1cn(Cc2ccccc2)c2ccc(OCCOc3cccc(OCc4ccc(C(F)(F)F)cc4)c3)cc12
5. Cc1ccc(COc2cccc(OCCOc3ccc4c(c3)c(CC(=O)O)cn4Cc3ccccc3)c2)cc1
6. COc1ccc(Oc2cccc(OCCCOc3ccc4[nH]cc(CC(=O)O)c4c3)c2)cc1
7. O=C(O)Cc1c[nH]c2ccc(OCCOc3cccc(OCc4ccc(Cl)cc4)c3)cc12

122%
13.7%
40.6%
73.9%
87.2%
25.6%
79%
